# Tested on: Trypanosoma cruzi
# protocol notes: WHO-TDR: Chagas disease
# Type: functional, organism-based, Homo sapiens
# recorded conditions: MRC5
property label: IC50 (µg/mL)

- COc1ccccc1NC(=O)Nc1nc(CC(=O)N2CCN(c3cccc(C(F)(F)F)c3)CC2)cs1: 0.93
- COc1ccc(N2CCCS2(=O)=O)cc1NC(=O)c1cc(Cl)ccc1OC: 5.04

---

# protocol notes: WHO-TDR: Cytotoxicity
# Type: toxicity, cell-based
# recorded conditions: human, MRC5 cells
property label: IC50

* CCc1cccc2sc(NC(=O)C3CCCCN3S(C)(=O)=O)nc12 (stereo not given) | > 11 µg/mL
* O=S(=O)(NCC(c1cccs1)N1CCOCC1)c1ccc(Cl)cc1 (stereo not given) | > 11.6 µg/mL
* O=C(Nc1ccc(C(F)(F)F)cc1)N1CCN(Cc2nnnn2-c2ccccc2)CC1 | > 12.9 µg/mL
* O=C(Nc1ccc2c(c1)N(C(=O)C1CC1)CCC2)c1cccc(C(F)(F)F)c1 | > 11.7 µg/mL
* CCN(CC)c1cc(C)nc(Nc2ccc(NS(=O)(=O)c3ccc(C)cc3C)cc2)n1 | 1.51 µg/mL
* O=C(NCCNc1ccc(Nc2ccccn2)nn1)c1ccc(F)cc1 | > 10.6 µg/mL
* CCOC(=O)N1CCN(C(=O)Nc2nc(CC(=O)Nc3nc4ccccc4s3)cs2)CC1 | > 14.2 µg/mL
* O=C(Nc1ccc(-c2cn3c(n2)SCC3)cc1)C1CCCC1 | > 9.4 µg/mL
* COc1cccc2sc(Nc3nnc(-c4cccs4)o3)nc12 | 1.83 µg/mL
* Cc1ccc(-n2ccnc2N2CCN(C(=O)c3ccccc3SC(F)F)CC2)cc1 | 13.9 µg/mL

---

# System: Leishmania infantum
# protocol notes: WHO-TDR: Leishmaniasis
# Assay type: functional, organism-based, Mus musculus
# recorded conditions: Macrophage
Recorded log10(IC50) for the following compounds
property label: log10(IC50) (log10 of the value in µg/mL)

* Cc1nnc(NC(=O)COc2cccc3ccc(N4CCCC(C)C4)nc23)s1 (centres undefined) | 0.79
* O=C(C1CCCC1)N1CCc2ccc(NS(=O)(=O)c3ccc4c(c3)OCCO4)cc21 | -0.38
* CCN1CCc2c(sc(NC(=O)c3ccccc3)c2-c2nc3ccccc3s2)C1 | 0.65
* Cc1ccc(-n2ccnc2N2CCN(C(=O)c3ccc4ccccc4c3)CC2)cc1 | 0.41
* Cc1cccc(Nc2nc(Nc3ccc4c(c3)OCO4)nc(N3CCOCC3)n2)c1 | 0.63
* Cc1cc(C(=O)Nc2nc(-c3cccnc3)cs2)on1 | -0.56
* O=C(Nc1nnc(-c2ccc3c(c2)CCCC3)o1)c1cc(Cl)sc1Cl | 0.79
* COc1nn(C)cc1-c1nnc(SCC(=O)N2CCC(Cc3ccccc3)CC2)n1C | 0.63
* COc1ccc(Cl)cc1C(=O)Nc1cc(C)nn1-c1nc2c(c(=O)[nH]1)CCC2 | 0.79
* COc1ccc(Cl)c2sc(NC(=O)c3ccc4c(c3)OCCO4)nc12 | -0.44
* CCOc1cccc2cc(-c3csc(NC(=O)c4sc5ccccc5c4Cl)n3)oc12 | 0.57
* CC(C)CC(=O)NCCOc1ccc2nnc(-c3ccccc3)n2n1 | -0.48
* O=C(Nc1ccc(-c2cn3c(n2)SCC3)cc1)C1CCCC1 | -0.52
* O=C(CCc1csc(NC(=O)c2cccs2)n1)Nc1nc2ccccc2s1 | 0.61
* COc1ccc(-c2ccc(NS(=O)(=O)c3ccc(Cl)s3)cc2)nn1 | 0.04
* COc1ccc2nc(N(CCCN(C)C)C(=O)CCCSc3ccccc3)sc2c1 | 0.67
* CN(C)CCCN(C(=O)CCSc1ccccc1)c1nc2cc3c(cc2s1)OCO3 | -0.33
* CC(C)(C)c1ccc(C(=O)N2CCN(c3ccc(Nc4ccncc4)nn3)CC2)cc1 | 0.61
* CCc1ccc(S(=O)(=O)N2CCN(c3ccc(Nc4ccccn4)nn3)CC2)cc1 | -0.39

---

# protocol notes: WHO-TDR: Cytotoxicity
# Format: toxicity, cell-based
# recorded conditions: human, MRC5 cells
property label: IC50 (µg/mL)

- CC(C)N1CCc2c(sc(NC(=O)c3cc4c(ccc5ccccc54)oc3=O)c2C(N)=O)C1: 0.416
- O=C(Nc1nc(-c2ccncc2)cs1)C1CCCN(S(=O)(=O)c2cccs2)C1 (stereo not given): 9.25
- CCC(Sc1ccc(NC(=O)c2cccc(F)c2)nn1)C(=O)OC (stereo not given): 9.15
- O=c1ccc(-c2ccc(F)cc2)nn1CCCNS(=O)(=O)/C=C/c1ccccc1: 6.58

---

# System: Onchocerca ochengi
# protocol notes: WHO-TDR: Onchocerciasis
# Assay type: functional
# Set-up: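 at 12.5 µM on microfilariae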
property label: % Inhibition (%)

- NC(=O)Cc1csc(SCC(=O)c2ccccc2)n1: 0
- O=C(CSc1ncc(CO)n1Cc1ccc(Cl)cc1)NCc1ccccc1Cl: 100
- Cc1ccc(-c2ccc(=O)n(CCCNS(=O)(=O)c3ccc(Cl)s3)n2)cc1: 100
- COc1ccc(S(=O)(=O)N2CCN(c3ccc(Nc4ccccn4)nn3)CC2)cc1: 0
- O=C(Nc1onc2c1CCCC2)c1cccc(Oc2ccccc2)c1: 100
- Cc1ccc(S(=O)(=O)N2CCCCC2CC(=O)Nc2ccc(F)c(C(F)(F)F)c2)cc1 (stereo not given): 0
- Cc1ccnc(Nc2ccc(NCCNC(=O)c3cccc(C(F)(F)F)c3)nn2)c1: 100
- O=S(=O)(CCCOc1ccc2c(c1)OCO2)NCCc1c[nH]c2ccccc12: 100
- CC(C)(C)C(=O)N1CCN(c2ccc(-c3ccncc3)nn2)CC1: 0
- CCOc1ccc2ccccc2c1C(=O)Nc1cc(C)nn1-c1nc(C)cc(=O)[nH]1: 100

---

# protocol notes: WHO-TDR: Cytotoxicity
# Format: toxicity, cell-based
# recorded conditions: human, MRC5 cells
Recorded IC50 for the following molecules
property label: IC50

• O=C(Cc1ccccc1)Nc1nnc(SCC(=O)NC2CCCC2)s1 = 3.82 µg/mL
• CSc1cccc(C(=O)N(Cc2cccnc2)c2nc3ccc(S(C)(=O)=O)cc3s2)c1 = > 14.1 µg/mL
• O=C(Cc1ccc(Cl)cc1)Nc1cccc(-c2nc3cccnc3s2)c1 = > 11.4 µg/mL
• CCOC(=O)Cn1/c(=N/C(=O)c2ccc(N3C(=O)CCC3=O)cc2)sc2c(C)cc(C)cc21 = > 9.4 µg/mL
• Cc1cc(C(=O)Nc2nc(-c3cccnc3)cs2)on1 = > 8.59 µg/mL
• CCc1ccc(NC(=O)N2CCN(c3ccc(Nc4cc(C)ccn4)nn3)CC2)cc1 = > 12.5 µg/mL
• CCC(=O)c1c(NC(=O)c2ccc(C)cc2)sc2c1CCN(CC)C2 = > 11.8 µg/mL
• O=C(Nc1nc(CSCc2ccc(F)cc2)cs1)c1ccco1 = > 10.5 µg/mL
• CCOC(=O)c1ccccc1NC(=O)CSc1ncc(CO)n1Cc1ccc(OC)cc1 = > 13.7 µg/mL
• CN(C)C(CNS(=O)(=O)c1cc(Cl)ccc1Cl)c1ccsc1 (stereo unspecified) = > 11.4 µg/mL
• CN1CCN(C(CNC(=O)c2ccc(F)c(F)c2)c2ccc3c(c2)CCN3C)CC1 (stereo unspecified) = 3.34 µg/mL

---

# protocol notes: WHO-TDR: Cytotoxicity
# Assay type: toxicity, cell-based
# recorded conditions: human, MRC5 cells
property label: IC50

* O=C(Cc1cccc2ccccc12)Nc1onc2c1CCC2 | 2.87 µg/mL
* C=CCN1C(=O)C(C)(C)COc2ccc(NS(=O)(=O)c3ccc4c(c3)CCCC4)cc21 | > 13.2 µg/mL
* Cc1c(S(=O)(=O)CCNC(=O)NC2CCCCC2)c2ccccc2n1Cc1ccc(F)cc1 | > 14.1 µg/mL
* COc1ccc(CCNC(=O)NCC2CC(=O)N(c3ccc(Cl)cc3)C2)cc1 (configuration not stated) | > 12.1 µg/mL
* Cc1noc(C)c1CCc1nc(-c2ccc(Cl)cc2)no1 | 3.27 µg/mL
* O=C(Cc1cccs1)Nc1cccc(-c2ccc3nnc(-c4cccnc4)n3n2)c1 | 4.45 µg/mL
* CC(=O)N1CCc2ccc(NC(=O)c3ccc(C(C)(C)C)cc3)cc21 | > 10.1 µg/mL
* O=C(Cc1csc(NC(=O)c2ccc[nH]c2=O)n1)Nc1ccc(Cl)cc1 | > 11.7 µg/mL
* CC(=O)c1ccc(C(=O)N(Cc2cccnc2)c2nc3c(F)cc(F)cc3s2)cc1 | > 12.7 µg/mL
* CCN(C1CCCCC1)S(=O)(=O)c1ccc(C(=O)Nc2nnc(-c3ccc(F)cc3)o2)cc1 | 0.577 µg/mL
* O=C(c1ccc2c(c1)OCO2)C1C(=O)N(c2ccccc2)N=C1c1ccccc1 (configuration not stated) | 6.6 µg/mL
* COc1ccc2oc(-c3csc(NC(=O)c4cccc(OC)c4OC)n3)cc2c1 | > 12.3 µg/mL
* CC1(C)Cc2cccc(OCCCS(=O)(=O)NCc3cccs3)c2O1 | > 11.4 µg/mL
* CC1Cc2ccccc2N1C(=O)Cc1csc(SCC(=O)Nc2ccc(F)cc2)n1 (configuration not stated) | > 13.2 µg/mL
* O=C(Cc1csc(SCc2ccncc2)n1)N1CCN(c2ccccc2)CC1 | > 12.3 µg/mL
* O=C(CS(=O)(=O)Cc1ccccc1)Nc1cc(Cl)cc(Cl)c1 | > 10.7 µg/mL
* CCCCCOc1cccc(C(=O)Nc2nnc(-c3ccco3)o2)c1 | 5.71 µg/mL
* CCOC(=O)c1sc(NC(=O)C2CCCCN2S(C)(=O)=O)cc1C (configuration not stated) | > 11.2 µg/mL
* CCN(C1CCCCC1)S(=O)(=O)c1ccc(C(=O)Nc2nc(-c3ccccn3)cs2)cc1 | 5.19 µg/mL
* Cc1cc2cc(CNC(=O)c3ccccc3F)ccc2n1C | > 8.89 µg/mL
* CCSc1nnc2ccc(-c3ccc(CC)cc3)nn12 | > 8.53 µg/mL
* CCOC(=O)c1c(NC(=O)Cn2c(-n3nc(C)cc3C)nc(CC)cc2=O)sc2c1CCCCC2 | > 14.9 µg/mL

// data source = ChEMBL document CHEMBL2093137
